Target Under Test: Pim-2 (Homo sapiens (Human), UniProt Q9P1W9)
Sequence (Q9P1W9 whole entry): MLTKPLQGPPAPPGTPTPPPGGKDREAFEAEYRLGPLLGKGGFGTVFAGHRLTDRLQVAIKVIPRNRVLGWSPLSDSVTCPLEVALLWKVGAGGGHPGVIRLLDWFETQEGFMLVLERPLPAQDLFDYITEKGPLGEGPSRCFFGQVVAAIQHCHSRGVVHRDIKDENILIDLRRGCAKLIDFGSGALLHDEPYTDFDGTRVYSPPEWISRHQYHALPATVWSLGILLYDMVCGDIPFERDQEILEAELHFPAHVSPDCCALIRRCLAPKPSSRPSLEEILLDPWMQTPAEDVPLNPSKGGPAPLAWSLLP
Protocol Text: Pim-Mn enzyme assay (HTRF, 384-well), Pim-2
Assay type: biochemical
Conditions Used: Pim-2 enzyme 0.5 pM, ATP 1.5 μM, BAD (S112) 0.5 μM, HTRF, 22-point curve; read-out: Pim-2-Mn IC50 IP
pIC50: −log10 of the molar value.
Please use satisfied whenever pIC50 is not below 8, and not satisfied whenever it is.

[
  {
    "Molecule": "Cc1nc2cccc(-c3cc4c([nH]3)CCNC4=O)c2nc1NC1(C)CCCCC1",
    "Label Value": "satisfied"
  }
]

Please indicate if the recorded pIC50 for CC(C)(C)Nc1nc2c(-c3cc4c([nH]3)CCNC4=O)cccc2nc1/C=N/O meets or exceeds 8.
satisfied

Please indicate if the recorded pIC50 for COC(=O)C(C)(C)Nc1nc2c(-c3cc4c([nH]3)CCNC4=O)cccc2nc1C meets or exceeds 8.
not satisfied

Please indicate if the recorded pIC50 for Cc1nc2cccc(-c3cc4c([nH]3)CCNC4=O)c2nc1-c1nccn1C meets or exceeds 8.
not satisfied

Please indicate if the recorded pIC50 for Cc1nc2cccc(-c3cc4c([nH]3)C(C)N(C(=O)OC(C)(C)C)C4=O)c2nc1NC(C)(C)C (centres unmarked) meets or exceeds 8.
not satisfied
